targetEntity: human cannabinoid CB2 receptor (Homo sapiens)
Construct: expressed in transfected cells; host or cells: Saccharomyces cerevisiae strain MMY23 (expresses a chimeric Gpa1/human Galpha-i3 G-protein alpha subunit)
Sequence (P34972 whole entry): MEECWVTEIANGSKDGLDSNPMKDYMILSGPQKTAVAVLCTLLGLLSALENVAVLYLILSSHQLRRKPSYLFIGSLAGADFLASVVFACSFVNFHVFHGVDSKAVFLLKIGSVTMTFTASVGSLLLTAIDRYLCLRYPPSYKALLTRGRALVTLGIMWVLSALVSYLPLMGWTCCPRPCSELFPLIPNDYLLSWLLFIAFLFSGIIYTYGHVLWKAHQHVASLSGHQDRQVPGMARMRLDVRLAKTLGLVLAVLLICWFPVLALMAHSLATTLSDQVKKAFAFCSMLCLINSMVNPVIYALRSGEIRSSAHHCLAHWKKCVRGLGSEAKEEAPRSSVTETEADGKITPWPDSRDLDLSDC
measurementProtocol: Cannabinoid CB2 receptor agonist activity, yeast reporter assay
Format: cell-based
For each record, write down the corresponding EC50.

GET /value?item= N#Cc1ccc(CNC(=O)c2cnc(Nc3ccc(Cl)c(Cl)c3)nc2C(F)(F)F)cc1 &field=EC50 returns > 1 µM

The molecule identified as O=C(NCc1ccncc1)c1cnc(Nc2cccc(Cl)c2)nc1C(F)(F)F registered its EC50 at 0.02 to 1 µM

Form: molecule = N#Cc1ccc(CNC(=O)c2cnc(Nc3cc(Cl)cc(Cl)c3)nc2C(F)(F)F)cc1 ; EC50 = 0.02 to 1 µM

Entry CN(Cc1ccccc1)C(=O)c1cnc(Nc2cccc(Cl)c2Cl)nc1C(F)(F)F , EC50 reported as 0.02 to 1 µM

Lab note: measured EC50 of NC(=O)c1ccc(CNC(=O)c2cnc(Nc3cccc(Cl)c3)nc2C(F)(F)F)cc1 was > 1 µM

Recorded EC50 (molecule CN(Cc1ccccc1)C(=O)c1cnc(Nc2cccc(C#N)c2)nc1C(F)(F)F ): > 1 µM

For O=C(NCc1ccccc1)c1cnc(Nc2ccccc2Cl)nc1C(F)(F)F the molecule record lists EC50 as > 1 µM

Entry under test: O=C(NCc1ccccc1)c1cnc(Nc2ccc(Cl)cc2)nc1C(F)(F)F . Its EC50 was > 1 µM

Lab book: EC50 of Cc1ccc(CNC(=O)c2cnc(Nc3cccc(Cl)c3)nc2C(F)(F)F)cc1 noted as > 1 µM

Summary for this molecule, CN(Cc1ccccc1)C(=O)c1cnc(Nc2ccc(Cl)cc2)nc1C(F)(F)F : EC50 is > 1 µM

For reference, reported EC50 for CN(Cc1ccccc1)C(=O)c1cnc(Nc2cc(Cl)cc(Cl)c2)nc1C(F)(F)F stands at > 1 µM

The reported value for COc1ccc(Nc2ncc(C(=O)NCc3ccccc3)c(C(F)(F)F)n2)cc1 in terms of EC50 is > 1 µM

Documented EC50 of CC(C)(C)c1ccc(CNC(=O)c2cnc(Nc3cccc(Cl)c3)nc2C(F)(F)F)cc1 : > 1 µM

Measured EC50, O=C(NCc1ccnc(F)c1)c1cnc(Nc2cc(Cl)ccc2Cl)nc1C(F)(F)F : 0.02 to 1 µM
